- Procedure Text: Serum pharmacokinetics of SAHA in cats after IV and PO administration
- Format: in vivo
- Reported Conditions: both, serum, iv, 2 mg/kg
Measurement Kind: AUC (ng·h/mL)

INSERT INTO results (compound, measurement_kind, value_observed) VALUES
  ('O=C(CCCCCCC(=O)Nc1ccccc1)NO [SAHA, Suberoylanilidehydroxamic acid]', 'AUC', 150);

----------
- Procedure Text: Serum pharmacokinetics of SAHA in cats after IV and PO administration
- Type: in vivo
- Reported Conditions: cat, serum, po, 60 mg/kg
Measurement Kind: Cmax

INSERT INTO assay_data (molecule, value_observed) VALUES
  ('O=C(CCCCCCC(=O)Nc1ccccc1)NO [SAHA, Suberoylanilidehydroxamic acid]', '50.1 ng/mL');

----------
- Procedure Text: Serum pharmacokinetics of SAHA in cats after IV and PO administration
- Assay type: in vivo
- Reported Conditions: both, serum, iv, 2 mg/kg
Measurement Kind: half-life (min)

INSERT INTO assay_data (compound, value_observed) VALUES
  ('O=C(CCCCCCC(=O)Nc1ccccc1)NO [SAHA, Suberoylanilidehydroxamic acid]', 9);

----------
- Procedure Text: Serum pharmacokinetics of SAHA in cats after IV and PO administration
- Type: in vivo
- Reported Conditions: both, serum, po, 250 mg/m2
Measurement Kind: AUC(0-inf) (ng·h/mL)

INSERT INTO measurements (compound, measurement_kind, value_observed) VALUES
  ('O=C(CCCCCCC(=O)Nc1ccccc1)NO [SAHA, Suberoylanilidehydroxamic acid]', 'AUC(0-inf)', 80);

----------
- Procedure Text: Serum pharmacokinetics of SAHA in cats after IV and PO administration
- Assay type: in vivo
- Reported Conditions: both, serum, iv, 2 mg/kg
Measurement Kind: clearance (mL/min/kg)

INSERT INTO results (compound, measurement_kind, value_observed) VALUES
  ('O=C(CCCCCCC(=O)Nc1ccccc1)NO [SAHA, Suberoylanilidehydroxamic acid]', 'clearance', 233);

----------
- Procedure Text: Serum pharmacokinetics of SAHA in cats after IV and PO administration
- Type: in vivo
- Reported Conditions: both, serum, po, 250 mg/m2
Measurement Kind: bioavailability (%)

INSERT INTO assay_data (molecule, value_observed) VALUES
  ('O=C(CCCCCCC(=O)Nc1ccccc1)NO [SAHA, Suberoylanilidehydroxamic acid]', 8);
